// provenance: patent US20220135701A1

- experimental target: T1, cynomolgus monkey MerTK (cynomolgus monkey, UniProt A0A2K5V1H9 32-505)
- T1 construct: Soluble analyte in SPR; also called Cyno MerTK
- T1 sequence: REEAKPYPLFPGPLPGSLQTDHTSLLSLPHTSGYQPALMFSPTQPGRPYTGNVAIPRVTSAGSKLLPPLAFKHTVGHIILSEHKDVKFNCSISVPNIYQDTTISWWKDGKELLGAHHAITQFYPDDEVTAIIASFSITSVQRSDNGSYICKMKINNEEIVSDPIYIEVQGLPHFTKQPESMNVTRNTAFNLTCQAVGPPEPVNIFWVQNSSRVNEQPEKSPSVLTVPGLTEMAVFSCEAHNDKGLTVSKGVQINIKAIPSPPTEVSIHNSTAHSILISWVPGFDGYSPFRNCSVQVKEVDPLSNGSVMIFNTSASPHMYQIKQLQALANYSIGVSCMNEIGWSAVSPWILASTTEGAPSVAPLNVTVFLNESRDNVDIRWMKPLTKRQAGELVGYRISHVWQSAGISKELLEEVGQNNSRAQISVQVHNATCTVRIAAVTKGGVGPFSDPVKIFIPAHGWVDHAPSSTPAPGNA
- assay info: SPR BIAcore T200, Ab captured, 37C
measurement label: pKd
# log scale: pKd equals minus log10 of the concentration in mol/L

Solved cases below.
{"binder": "h10F7.v1 (antibody, V domains shown, also called h10F7.V1 (Parent); 10F7 Humanized mAb V1) VH: EQQLVESGGGLVQPGGSLRLSCAVSGFSLSGYAMSWVRQAPGKGLEYIGVISSSGSSYYPSWAKGRFTISKDSSKNTVYLQMGSLRAEDMAVYFCARVQFYVGYAVYGYGIIDRLDLWGQGTLVTVSS VL: DAVLTQSPDSLAVSLGERATINCQSSKSVYNNNWLSWYQQKPGQPPKLLIYRASTLESGVPDRFSGSGSGTDFTLTISSLQAEDVAVYFCAGGYSSSSSANAFGGGTKVEIK", "meas value": 8.51}
{"binder": "Rbt13B4 (antibody, V domains shown, Recombinant rabbit monoclonal antibody, Expi293, protein A purified; also called Rb13B4) VH: QSVEESGGRLVTPGTPLTLTCTVSGFSLSSYAMGWVRQAPGKGLEWIGIINSYGNTYYANWAKGRFTISRTSTTVDLRMPSLTTEDTATYFCARDPGVSSNLWGPGTLVTVSS VL: DVVMTQTPASVSEPVGGTVTIKCQASQNIYSGLAWYQQKPGQPPKLLIYGASKLASGVSSRFKGSGSGTEFTLTISDLECADAATYYCQATYYSSNSVAFGGGTEVVVK", "meas value": 8.23}

Task: I'd like to know its pKd. The binder in question is h9E3.FN.v1 (antibody, V domains shown, also called h9E3.FN.V1 (Parent); 9E3.FN Humanized mAb V1) VH: EQQLVESGGGLIQPGGSLRLSCAVSGFSLSSNAMSWVRQAPGKGLEWIGIISSSGSTYSASWAKGRFTISKDSSKNTMYLQMNSLRAEDTAVYFCARVGFFVGYGAYDYGIIHRLDLWGQGTLVTVSS VL: DAQLTQSPSTLSASVGDRVTITCQSSKSIYNNNWLSWYQQKPGKPPKLLIYDASDLASGVPSRFSGSGSGTEFTLTISSLQPDDFATYYCAGGYSGDSDYAFGGGTKVEIK
Result: 8.35
